tested on: L1210 leukemia ip in BDF1 mice, survival T/C; test: NCI In Vivo Anticancer Drug Screen. Data for tumor model L1210 Leukemia (intraperitoneal) in B6D2F1 (BDF1) mice; settings: endpoint: mean survival time; dose: 400.0 mg/kg/injection; schedule: Q01DX001 (ip); vehicle: saline; higher = longer survival
Toxic doses and inconclusive results are not listed.
In this section we review reported T/C values for a set of compounds.
attribute-measured: T/C

[[record]]
compound = "CCCCCCCCCCCCCCSSCCCCCCCCCCCCCC"
result_value = "96 % of control"

[[record]]
compound = "COc1cc([N+](=O)[O-])c(N)c([N+](=O)[O-])c1"
result_value = "93 % of control"

[[record]]
compound = "CCOC(=O)/C(C#N)=C1\\CCc2cc(OC)ccc21"
result_value = "92 % of control"

[[record]]
compound = "COC(=O)c1cc(C)cc([N+](=O)[O-])c1C"
result_value = "102 % of control"

[[record]]
compound = "Nc1nc(=O)n(C2OC(CO)C(O)C2O)c2ccccc12 (stereo not given)"
result_value = "101 % of control"

